Provide the reported growth of each item.
Tested on: TK-10 renal
PROTOCOL: NCI-60 one-dose screen, 48 h (100 = growth as untreated, 0 = no growth, -100 = all killed)
CONDITION_DESCRIPTION: 10 µM
Protocol: Growth inhibition of the TK-10 human tumor cell line is measured as a screen for anti-cancer activity. Cells are grown in 96 well plates and exposed to the test compound for 48 hours. Compounds are tested at a single concentration, which is 10^-5 M for most compounds. The reported endpoint is percent growth (GI% or GIPRCNT), where numbers from 0 - 100% represent growth inhibition, and numbers from -100% - 0 represent cell death. For example, a value of 40 represents 60% growth inhibition. […]
Compounds without any hit were thinned out: in the full panel of roughly 83,000, 20% have a hit.
Write the answer as a number in %, unit excluded.

Input line: // fetch TK-10 renal growth for CCC(CC)n1c(C)cc(=O)n1C(CC)CC
Output line: 109

Input line: Consider next the molecule COc1cc2c3c(n([C@@H]4CCOC4)c(=O)c2cc1OC)-c1cc2c(cc1C3=O)OCO2 in the same way.
Output line: 99.7

Input line: Consider next the molecule C=CCN(CC=C)C(=O)[C@H](CC)[C@@H]1CC[C@@H](C)[C@@H]([C@H](C)[C@@H](O)[C@@H](C)C(=O)[C@H](CC)C2O[C@]3(C=C[C@@H](O)[C@]4(CC[C@@](C)([C@H]5CC[C@](O)(CC)[C@H](C)O5)O4)O3)[C@H](C)C[C@@H]2C)O1 (stereo partly specified) in the same way.
Output line: 16.2

Input line: Consider next the molecule CN1C(=O)C2(Nc3cc(Cl)ccc3S2)c2cc(Cl)ccc21 (stereo unspecified) in the same way.
Output line: 125

Input line: Consider next the molecule OCC1OC(n2ccc3c(NO)ncnc32)C(O)C1O (stereo unspecified) in the same way.
Output line: -15.1

Input line: Consider next the molecule COc1ccc(-c2nn(-c3cccc(Cl)c3)cc2C=C(C#N)C#N)cc1 in the same way.
Output line: -3.05

Input line: Consider next the molecule CCN(CC)c1ccc(/C=C2\SC(=O)C(Nc3nnc(-c4cccnc4SCc4ccccc4)o3)C2=O)cc1 (stereo unspecified) in the same way.
Output line: 44.3

Input line: Consider next the molecule O=C(CC(CC(=O)c1ccccc1)c1ccccc1O)c1ccccc1 in the same way.
Output line: 98.6

Input line: Consider next the molecule COc1ccc(/C(C#N)=C/c2cccc(OC)c2OC)cc1 in the same way.
Output line: 96.7

Input line: Consider next the molecule CC(=O)Nc1ccc(S(=O)(=O)N/N=C(\C)c2ccc(C)cc2C)cc1 in the same way.
Output line: 108

Input line: Consider next the molecule CNS(=O)(=O)Oc1ccc(-c2ccc3occc3c2)cc1 in the same way.
Output line: 98.5

###

Tested on: OVCAR-8 ovarian
PROTOCOL: NCI-60 one-dose screen, 48 h
CONDITION_DESCRIPTION: 10 µM
About 83,000 compounds went through this panel and 20% of them were active in at least one assay; those are over-represented in the sample as a whole. Calls of active or inactive are those of the source. How the source made its calls: active means growth percent below 10; inactive means the rest.
Please reply with one of these outcomes: active, inactive

Input line: Look up the recorded call for CC(=O)N[C@H](C(=O)N[C@@H](CCCNC(=N)N)C(=O)N[C@@H](CCCCN)C(=O)N[C@@H](CCCNC(=N)N)C(=O)N[C@]1(C)CCCCCC/C=C\CCC[C@@](C)(C(=O)N[C@@H](CCCNC(=N)N)C(=O)N[C@@H](CCC(=O)O)C(=O)N[C@@H](CC(C)C)C(=O)N[C@H](C(=O)N[C@@H](CCC(=O)O)C(N)=O)C(C)C)NC(=O)[C@H](CCC(N)=O)NC(=O)[C@H](CC(C)C)NC(=O)[C@H](CC(C)C)NC(=O)[C@H](CCCNC(=N)N)NC(=O)[C@H](CCCNC(=N)N)NC(=O)[C@H](CC(C)C)NC1=O)C(C)C in this test.
Output line: active

Input line: Consider next the compound COc1ccc(/C=C2\CCCC3=C2NC(N)=NC3c2ccc(OC)cc2)cc1 (configuration not stated) in the same way.
Output line: inactive

Input line: Consider next the compound CCOC(=O)CSc1nc(-c2cc(OC)ccc2OC)cc(-c2ccc(OC)cc2)c1C#N in the same way.
Output line: inactive

Input line: Consider next the compound CS(=O)(=O)c1nccc(-c2c(-c3cccc(OCc4ccccc4)c3)nc3sccn23)n1 in the same way.
Output line: inactive

Input line: Consider next the compound Nc1nc(Cl)nc2c1ncn2C1O[C@H](CO)[C@@H](O)[C@@H]1F (some centres not stated) in the same way.
Output line: inactive

Input line: Consider next the compound COc1ccc(-c2nn(-c3cccc(Cl)c3)cc2C=C(C#N)C#N)cc1 in the same way.
Output line: inactive

Input line: Consider next the compound O=C1c2ccccc2C(=O)c2c1ccc1c(=O)n(-c3ccccc3C(F)(F)F)nnc21 in the same way.
Output line: active

Input line: Consider next the compound Cc1c2cnccc2c(C)c2c1oc1ccccc12 in the same way.
Output line: inactive

Input line: Consider next the compound C(=N\Nc1ncnc2sc3c(c12)CCNC3)/c1cccc2ccccc12 in the same way.
Output line: inactive

Input line: Consider next the compound O=C(N/N=C/c1ccc(Cl)cc1)c1ccccc1Nc1cccc(C(F)(F)F)c1 in the same way.
Output line: inactive

Input line: Consider next the compound COc1cc2cc(Oc3ccc(NC(=O)c4cc(C(F)(F)F)cc(C(F)(F)F)c4)cc3)c(C)nc2cc1OC in the same way.
Output line: inactive

Input line: Consider next the compound Cc1ccc(C(C)C)c(O)c1NC(=O)OC(C)C in the same way.
Output line: inactive

Input line: Consider next the compound CS(=O)(=O)c1nccc(-c2c(-c3cccc(OCCN4CCOCC4)c3)nc3sccn23)n1 in the same way.
Output line: inactive

Input line: Consider next the compound COc1ccc2c(c1)CC=C1[C@@H]2CC[C@]2(C)C(=O)/C(=N/O)C[C@@H]12 in the same way.
Output line: inactive

Input line: Consider next the compound Cc1cc(CSc2ccccc2C(=O)N2CC=C(c3ccccc3)CC2)on1 in the same way.
Output line: inactive

Input line: Consider next the compound COc1ccc(C(=O)c2cc3c(OC)c(OC)c(OC)cc3[nH]2)cc1 in the same way.
Output line: inactive

Input line: Consider next the compound Cc1cc(CC(C)CC(C)(C)C)n(O)c(=O)c1 (configuration not stated) (tested in a mixture with another compound) in the same way.
Output line: inactive

Input line: Consider next the compound Clc1ccc2c(c1)C(N1CCNCC1)=Nc1ccccc1O2 in the same way.
Output line: inactive

Input line: Consider next the compound COc1cc(/C=C/c2cc(/C=C/c3ccc(O)c(OC)c3)nc(N)n2)ccc1O in the same way.
Output line: active

Input line: Consider next the compound CC(=O)[C@H]1CC[C@]2(C)[C@@H]1CC[C@@H]1[C@@]3(C)CC(CCC#N)(CCC#N)C(=O)C(C)(C)[C@@H]3CC[C@]12C in the same way.
Output line: inactive

Input line: Consider next the compound CCOC(=O)c1cocc1C(=O)O in the same way.
Output line: inactive

Input line: Consider next the compound Nc1nc(N)c(N)c(Nc2ccc(CCO)cc2)n1 in the same way.
Output line: inactive

Input line: Consider next the compound NNC(=O)Oc1c(Cl)cc(Cl)cc1[N+](=O)[O-] in the same way.
Output line: inactive

Input line: Consider next the compound O=[N+]([O-])c1cccc(/C=N/NC(=S)NC23CC4CC(CC(C4)C2)C3)c1 in the same way.
Output line: inactive

Input line: Consider next the compound COc1ccc(/C(C#N)=C/c2cccc(OC)c2OC)cc1 in the same way.
Output line: inactive

Input line: Consider next the compound COc1cc(Cc2cc(-c3ccccc3)n[nH]c2=O)cc(OC)c1OC in the same way.
Output line: inactive

Input line: Consider next the compound CC(C)(C)OC(=O)CC(S(=O)(=O)c1ccccc1)S(=O)(=O)c1ccccc1 in the same way.
Output line: inactive
